Tested on: Vesicular stomatitis virus
Experimental details: Antiviral activity against VSV infected in African green monkey Vero 76 cells after 2 days by plaque reduction assay
Type: functional, organism-based
Test settings: vero
pEC50: −log10 of the molar value.
Measured property: pEC50

Ask | Quote pEC50 reported for Clc1ccc(NCc2cn(-c3ccccc3)nc2-c2ccc(Br)cc2)cc1 please.
Reply | < 4.00

====

Tested on: Coxsackievirus B5
Experimental details: Antiviral activity against Coxsackievirus B5 infected in African green monkey Vero 76 cells after 3 days by plaque reduction assay
Type: functional, organism-based
Test settings: vero
Measured property: EC50

Ask | Quote EC50 reported for Clc1ccc(NCc2cn(-c3ccccc3)nc2-c2ccc(Br)cc2)cc1 please.
Reply | > 100 µM

====

System: Vaccinia virus
Experimental details: Antiviral activity against Vaccinia virus infected in African green monkey Vero 76 cells after 3 days by plaque reduction assay
Assay type: functional, organism-based, Orthopoxvirus vaccinia
Test settings: Orthopoxvirus vaccinia, Vero, 72 h
pEC50: −log10 of the molar value.
Catalogue of pEC50 readings, one per entry.

Previously resolved entries follow.
INSERT INTO assay_data (smiles_string, tested_target, result) VALUES
  ('Cc1ccc(NCc2cn(-c3ccccc3)nc2-c2ccc(C)cc2)cc1', 'Vaccinia virus', '< 4.00'),
  ('Cc1ccc(-c2nn(-c3ccccc3)cc2CNc2ccc(Br)cc2)cc1', 'Vaccinia virus', '< 4.04');

Ask | Quote pEC50 reported for Cc1ccc(NCc2cn(-c3ccccc3)nc2-c2ccccc2)cc1 please.
Reply | < 4.00

Ask | Quote pEC50 reported for Clc1ccc(NCc2cn(-c3ccccc3)nc2-c2ccccc2)cc1 please.
Reply | < 4.19

Ask | Quote pEC50 reported for FC(F)(F)c1ccc(-c2nn(-c3ccccc3)cc2CNc2ccc(Br)cc2)cc1 please.
Reply | < 4.77

Ask | Quote pEC50 reported for Brc1ccc(NCc2cn(-c3ccccc3)nc2-c2ccc(Br)cc2)cc1 please.
Reply | < 4.06

====

Experimental details: Cytotoxicity against African green monkey Vero 76 cells assessed as cell viability after 48 to 96 hrs by MTT method
Type: cell-based
Test settings: chlorocebus sabaeus, Vero 76 cells
Catalogue of CC50 readings, one per entry.

Previously resolved entries follow.
INSERT INTO measurements (smiles_string, measured_property, result) VALUES
  ('Cc1ccc(NCc2cn(-c3ccccc3)nc2-c2ccccc2)cc1', 'CC50', '> 100 µM'),
  ('FC(F)(F)c1ccc(NCc2cn(-c3ccccc3)nc2-c2ccc(C(F)(F)F)cc2)cc1', 'CC50', '26 µM'),
  ('FC(F)(F)c1ccc(NCc2cn(-c3ccccc3)nc2-c2ccc(Br)cc2)cc1', 'CC50', '28 µM'),
  ('Cc1ccc(-c2nn(-c3ccccc3)cc2CNc2ccccc2)cc1', 'CC50', '52 µM');

Ask | Quote CC50 reported for Cc1ccc(NCc2cn(-c3ccccc3)nc2-c2ccc(C(F)(F)F)cc2)cc1 please.
Reply | 82 µM

Ask | Quote CC50 reported for Cc1ccc(NCc2cn(-c3ccccc3)nc2-c2ccc(C)cc2)cc1 please.
Reply | > 100 µM

Ask | Quote CC50 reported for Brc1ccc(NCc2cn(-c3ccccc3)nc2-c2ccc(Br)cc2)cc1 please.
Reply | 88 µM

Ask | Quote CC50 reported for Clc1ccc(NCc2cn(-c3ccccc3)nc2-c2ccccc2)cc1 please.
Reply | 65 µM

Ask | Quote CC50 reported for COc1c(C)c2c(c(O)c1C/C=C(\C)CCC(=O)O)C(=O)OC2 please.
Reply | 19 µM

Ask | Quote CC50 reported for Brc1ccc(NCc2cn(-c3ccccc3)nc2-c2ccccc2)cc1 please.
Reply | 52 µM

Ask | Quote CC50 reported for Brc1ccc(-c2nn(-c3ccccc3)cc2CNc2ccccc2)cc1 please.
Reply | 52 µM

Ask | Quote CC50 reported for FC(F)(F)c1ccc(-c2nn(-c3ccccc3)cc2CNc2ccc(Cl)cc2)cc1 please.
Reply | 10 µM

Ask | Quote CC50 reported for O=c1cnn([C@@H]2O[C@H](CO)[C@@H](O)[C@H]2O)c(=O)[nH]1 please.
Reply | 10 µM

Ask | Quote CC50 reported for Cc1ccc(NCc2cn(-c3ccccc3)nc2-c2ccc(Br)cc2)cc1 please.
Reply | > 100 µM

Ask | Quote CC50 reported for FC(F)(F)c1ccc(-c2nn(-c3ccccc3)cc2CNc2ccc(Br)cc2)cc1 please.
Reply | 17 µM

====

Catalogue of pEC50 readings, one per entry.
Test system: Mammalian orthoreovirus 1
Experimental details: Antiviral activity against Reovirus 1 infected in hamster BHK21 cells assessed as protection against viral-induced cytopathogenecity after 3 to 4 days by MTT method
Type: functional, cell-based
Test settings: Mammalian orthoreovirus 1, BHK-21
pEC50: −log10 of the molar value.

Previously resolved entries follow.
INSERT INTO measurements (smiles_string, result) VALUES
  ('FC(F)(F)c1ccc(NCc2cn(-c3ccccc3)nc2-c2ccc(Cl)cc2)cc1', '< 4.77'),
  ('Clc1ccc(NCc2cn(-c3ccccc3)nc2-c2ccccc2)cc1', '< 4.00'),
  ('Cc1ccc(-c2nn(-c3ccccc3)cc2CNc2ccc(Br)cc2)cc1', '< 4.00'),
  ('Cc1ccc(NCc2cn(-c3ccccc3)nc2-c2ccccc2)cc1', '< 4.00'),
  ('Cc1ccc(-c2nn(-c3ccccc3)cc2CNc2ccccc2)cc1', '< 4.00');

Ask | Given FC(F)(F)c1ccc(-c2nn(-c3ccccc3)cc2CNc2ccc(Br)cc2)cc1 , report its pEC50 on Mammalian orthoreovirus 1.
Reply | < 4.55

Ask | Given FC(F)(F)c1ccc(-c2nn(-c3ccccc3)cc2CNc2ccc(Cl)cc2)cc1 , report its pEC50 on Mammalian orthoreovirus 1.
Reply | < 4.51

====

Test system: Enterovirus C
Experimental details: Antiviral activity against Poliovirus Sb-1 infected in African green monkey Vero 76 cells after 2 days by plaque reduction assay
Assay type: functional, organism-based
Test settings: Enterovirus C, Sb-1, Vero, 48 h
Measured property: EC50

Previously resolved entries follow.
INSERT INTO measurements (smiles_string, measured_property, result) VALUES
  ('FC(F)(F)c1ccc(NCc2cn(-c3ccccc3)nc2-c2ccc(Cl)cc2)cc1', 'EC50', '> 18 µM'),
  ('Cc1cc(CCCOc2c(C)cc(-c3noc(C(F)(F)F)n3)cc2C)on1', 'EC50', '2.2 µM'),
  ('FC(F)(F)c1ccc(NCc2cn(-c3ccccc3)nc2-c2ccc(Br)cc2)cc1', 'EC50', '> 28 µM'),
  ('Cc1ccc(NCc2cn(-c3ccccc3)nc2-c2ccc(C(F)(F)F)cc2)cc1', 'EC50', '> 82 µM'),
  ('Brc1ccc(NCc2cn(-c3ccccc3)nc2-c2ccccc2)cc1', 'EC50', '> 52 µM'),
  ('Brc1ccc(-c2nn(-c3ccccc3)cc2CNc2ccccc2)cc1', 'EC50', '> 52 µM'),
  ('Brc1ccc(NCc2cn(-c3ccccc3)nc2-c2ccc(Br)cc2)cc1', 'EC50', '> 88 µM'),
  ('Cc1ccc(-c2nn(-c3ccccc3)cc2CNc2ccccc2)cc1', 'EC50', '> 52 µM');

Ask | Quote EC50 reported for Clc1ccc(NCc2cn(-c3ccccc3)nc2-c2ccccc2)cc1 please.
Reply | > 65 µM

Ask | Quote EC50 reported for FC(F)(F)c1ccc(NCc2cn(-c3ccccc3)nc2-c2ccccc2)cc1 please.
Reply | > 75 µM

Ask | Quote EC50 reported for Cc1ccc(-c2nn(-c3ccccc3)cc2CNc2ccc(Br)cc2)cc1 please.
Reply | > 92 µM

Ask | Quote EC50 reported for FC(F)(F)c1ccc(NCc2cn(-c3ccccc3)nc2-c2ccc(C(F)(F)F)cc2)cc1 please.
Reply | > 26 µM

Ask | Quote EC50 reported for FC(F)(F)c1ccc(-c2nn(-c3ccccc3)cc2CNc2ccc(Br)cc2)cc1 please.
Reply | > 17 µM

Ask | Quote EC50 reported for Cc1ccc(NCc2cn(-c3ccccc3)nc2-c2ccc(C)cc2)cc1 please.
Reply | > 100 µM

Ask | Quote EC50 reported for FC(F)(F)c1ccc(-c2nn(-c3ccccc3)cc2CNc2ccc(Cl)cc2)cc1 please.
Reply | > 80 µM

====

Test system: Vaccinia virus
Experimental details: Antiviral activity against Vaccinia virus infected in African green monkey Vero 76 cells after 3 days by plaque reduction assay
Format: functional, organism-based, Orthopoxvirus vaccinia
Test settings: Orthopoxvirus vaccinia, Vero, 72 h
Measured property: EC50

INSERT INTO measurements (smiles_string, tested_target, result) VALUES
  ('Cc1ccc(NCc2cn(-c3ccccc3)nc2-c2ccc(Br)cc2)cc1', 'Vaccinia virus', '> 100 µM');

Ask | Quote EC50 reported for COc1c(C)c2c(c(O)c1C/C=C(\C)CCC(=O)O)C(=O)OC2 please.
Reply | 1.5 µM

Ask | Quote EC50 reported for Cc1ccc(NCc2cn(-c3ccccc3)nc2-c2ccc(C(F)(F)F)cc2)cc1 please.
Reply | > 82 µM

Ask | Quote EC50 reported for Cc1ccc(NCc2cn(-c3ccccc3)nc2-c2ccc(Cl)cc2)cc1 please.
Reply | > 100 µM

Ask | Quote EC50 reported for Brc1ccc(NCc2cn(-c3ccccc3)nc2-c2ccccc2)cc1 please.
Reply | > 52 µM
